- SYSTEM UNDER TEST: Claudin18.2-His protein (human)
- EXPERIMENT: indirect ELISA on coated Claudin18.2-His
OUTCOME MEASURE: EC50 (µg/mL)
Report the value in µg/mL with no unit label.

BINDER: 413B1C9 (antibody, V domains shown) VH: DVQLVESGGGLVQPGGSRKLSCAASGFTFSSFGMHWVRQAPEKGLEWVAYISSGSSPIYYADTVKGRFTISRDNPKNTLFLQMTSLRSEDTAMYFCARFYYGNSFDHWGQGTLVTVSA VL: DIVMTQSPSSLTVTTGEKVSMSCKSSQSLFNRGNQKSYLTWYQQKPGQPPKLLIYWASTRESGVPDRFTGSGSGTDFTLTISSVQAEDLAVYYCQNNYIYPLTFGAGTKLELK
EC50 (µg/mL): 0.00346
//
BINDER: 258D11C4 (antibody, V domains shown) VH: QAYLQQSGAELVRSGASVKMSCKASGYTFSSHNMHWVKQTPGQGLEWIGYIYPGNGGTNYNQKFKGKATLTADTSSSTAYMQISSLTSEDSAVYFCTRDYYGNSFAYWGQGTLVTVSA VL: DIVMTQSPSSLTEKAGERVSMSCKSSQSLFNSGNQKNYLTWYQQKPGQPPKLLIYWASTRQSGVPDRFTGSGSGTDFTLTISSVQAEDLAVYYCQNDYWFPFTFGAGTKLELK
EC50 (µg/mL): 0.0153

## Task Could you tell me which EC50 is on file for 420G10G3 (antibody, V domains shown) VH: DVQLVESGGGLVQPGGSRKLSCAASGFTFSGFGMHWIRQTAEKGLEWVAYISSGSRPIYYADTVQGRFTISRDNPKNTLFLQMTSLRSEDTAMYFCARFYYGNSFDHWGQGTLVTVSA VL: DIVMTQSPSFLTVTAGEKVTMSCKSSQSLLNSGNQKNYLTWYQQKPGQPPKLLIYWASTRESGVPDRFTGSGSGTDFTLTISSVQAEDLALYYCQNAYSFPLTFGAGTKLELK ?
## Result 0.0113
